Tested on: H9c2
Assay: Toxicity against undifferentiated rat H9c2 cells assessed as reduction in cell viability at 100 uM after 24 hrs by MTT assay
Assay type: cell-based
Conditions: h9c2, 24 h
Entries and their measured Activity follow.
Number first, unit second.

Some compounds with known Activity results, for comparison:
> print(dat)
                                   compound  measured.attribute  observed.value
1  CCOC(=O)N1CCC(NC(=O)c2cc(C#N)c(=O)[nH]c2C)CC1            Activity             20%
2      Cc1[nH]c(=O)c(C#N)cc1C(=O)NCc1ccccc1            Activity             20%
3  CCC(NC(=O)c1cc(C#N)c(=O)[nH]c1C)c1ccccc1 (centres undefined)            Activity             50%

Continue with the compound presented below.
INPUT: // query Activity value for entry `Cc1ccc(C#N)c(=O)[nH]1`
OUTPUT: 50%
